- subject of test: Heat shock protein HSP90 (Homo sapiens, UniProt P07900+P08238)
- experiment notes: Binding affinity to recombinant N-terminal Hsp90 (unknown origin) by SPR method
- Assay type: protein assay
assay endpoint: Kd (µM)

Reference set (2 entries):
Cc1ccccc1-n1c(-c2cc(C(=O)N(C)Cc3cccc(-c4cccnc4)c3)c(O)cc2O)n[nH]c1=O :: 0.0346
Cc1cccc(Cc2n[nH]c3cc(O)c(C(=O)N(C)c4ccc(CN5CCOCC5)cc4)cc23)c1 :: 0.0334

P. CCCCc1n[nH]c2cc(O)c(C(=O)N(C)c3ccc(N4CCOCC4)cc3)cc12
Q. Cc1cccc(Cc2n[nH]c3cc(O)c(C(=O)N(C)c4cccc(Cl)c4)cc23)c1
R. Cc1cccc(Cc2n[nH]c3cc(O)c(C(=O)N(C)c4ccc(Br)cc4)cc23)c1
Give the ascending ranking of the items by reported Kd. // rank by listing labels in the order requested
P, Q, R
